Tested On: UniProt Q9BY41
Sequence (Q9BY41 whole entry): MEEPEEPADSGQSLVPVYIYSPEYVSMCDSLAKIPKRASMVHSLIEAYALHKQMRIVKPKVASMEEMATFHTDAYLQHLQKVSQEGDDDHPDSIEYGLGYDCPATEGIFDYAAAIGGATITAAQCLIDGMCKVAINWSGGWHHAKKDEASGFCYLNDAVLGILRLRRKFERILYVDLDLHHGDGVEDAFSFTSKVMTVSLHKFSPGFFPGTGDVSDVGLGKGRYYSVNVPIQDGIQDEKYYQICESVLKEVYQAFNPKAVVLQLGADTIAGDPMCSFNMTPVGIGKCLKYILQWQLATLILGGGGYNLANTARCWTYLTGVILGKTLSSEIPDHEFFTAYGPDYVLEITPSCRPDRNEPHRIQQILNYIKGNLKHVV
Test Name: Inhibition of recombinant HDAC8 (unknown origin) expressed in Escherichia coli BL21(DE3) after 60 mins using trichostatin A by label-free mass spectrometry-based SAMDI assay
Quantity: IC50 (µM)
Just the number in µM, nothing appended.

q: Please tell me: IC50 of CC[C@@H]1OC(=O)[C@@H](C)[C@H](O[C@@H]2C[C@](C)(OC)[C@@](O)(CN(C)C)[C@@H](C)O2)[C@H](C)[C@H](O[C@@H]2O[C@H](C)C[C@H](N(C)Cc3ccc(-c4cn(CCCCCC(=O)NO)nn4)cc3)[C@H]2O)[C@@](C)(OC)C[C@H](C)C(=O)[C@@H](C)[C@@H](O)[C@@]1(C)O , system UniProt Q9BY41?
a: 3.2

----------
Tested On: UniProtKB Q9UBN7
Sequence (Q9UBN7 whole entry): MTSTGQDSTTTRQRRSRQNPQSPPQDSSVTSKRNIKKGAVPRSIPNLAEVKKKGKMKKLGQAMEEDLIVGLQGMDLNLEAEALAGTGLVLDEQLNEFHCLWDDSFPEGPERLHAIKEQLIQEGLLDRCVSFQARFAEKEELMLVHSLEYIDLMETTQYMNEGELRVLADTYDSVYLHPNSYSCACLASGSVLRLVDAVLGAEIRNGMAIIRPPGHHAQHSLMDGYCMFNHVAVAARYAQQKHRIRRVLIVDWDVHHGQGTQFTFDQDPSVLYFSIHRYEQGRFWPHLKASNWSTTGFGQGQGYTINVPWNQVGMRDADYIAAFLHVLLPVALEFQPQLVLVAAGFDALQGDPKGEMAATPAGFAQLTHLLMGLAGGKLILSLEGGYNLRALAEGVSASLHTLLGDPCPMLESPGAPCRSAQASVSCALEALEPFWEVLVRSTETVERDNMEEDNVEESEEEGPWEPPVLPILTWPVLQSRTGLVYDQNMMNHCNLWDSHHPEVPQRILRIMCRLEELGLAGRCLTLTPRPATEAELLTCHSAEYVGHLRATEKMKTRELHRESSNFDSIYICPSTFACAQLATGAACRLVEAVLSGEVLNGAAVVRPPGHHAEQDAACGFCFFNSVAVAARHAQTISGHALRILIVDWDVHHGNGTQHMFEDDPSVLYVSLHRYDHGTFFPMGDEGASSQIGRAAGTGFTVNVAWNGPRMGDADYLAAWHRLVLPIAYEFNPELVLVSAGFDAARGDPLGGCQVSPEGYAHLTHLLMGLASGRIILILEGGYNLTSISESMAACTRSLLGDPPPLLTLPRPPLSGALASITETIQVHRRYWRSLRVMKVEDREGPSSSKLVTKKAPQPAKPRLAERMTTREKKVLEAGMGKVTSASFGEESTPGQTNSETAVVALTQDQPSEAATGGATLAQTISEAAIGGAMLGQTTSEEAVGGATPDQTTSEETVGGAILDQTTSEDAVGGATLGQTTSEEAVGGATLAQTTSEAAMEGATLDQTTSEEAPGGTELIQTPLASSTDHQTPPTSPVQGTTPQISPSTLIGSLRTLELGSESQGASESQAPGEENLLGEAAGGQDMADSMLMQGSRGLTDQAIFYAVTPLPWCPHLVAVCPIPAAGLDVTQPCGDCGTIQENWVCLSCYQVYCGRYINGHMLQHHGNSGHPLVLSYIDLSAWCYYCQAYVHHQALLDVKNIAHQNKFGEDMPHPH
Test Name: Inhibition of recombinant HDAC6 (unknown origin) expressed in Escherichia coli BL21(DE3) after 60 mins using trichostatin A by label-free mass spectrometry-based SAMDI assay
Quantity: IC50 (nM)
Just the number in nM, nothing appended.

Worked examples follow.
Compound: CC[C@H]1OC(=O)[C@@H](C)[C@H](O[C@H]2C[C@@](C)(OC)[C@](O)(CN(C)Cc3ccc(-c4cn(CCCCCCC(=O)NO)nn4)cc3)[C@H](C)O2)[C@H](C)[C@H](O[C@H]2O[C@@H](C)C[C@@H](N(C)C)[C@@H]2O)[C@@](C)(O)C[C@H](C)CN(C)[C@@H](C)[C@H](O)[C@@]1(C)O
Measured Number: 31.3
--
Compound: CC[C@H]1OC(=O)[C@@H](C)[C@H](O[C@H]2C[C@@](C)(OC)[C@@H](O)[C@H](C)O2)[C@H](C)[C@H](O[C@H]2O[C@@H](C)C[C@@H](N(C)Cc3ccc(-c4cn(CCCCCC(=O)NO)nn4)cc3)[C@@H]2O)[C@@](C)(O)C[C@H](C)CN(C)[C@@H](C)[C@H](O)[C@@]1(C)O (stereo in doubt)
Measured Number: 14.3

q: Please tell me: IC50 of CC[C@H]1OC(=O)[C@H](C)[C@@H](O[C@@H]2C[C@](C)(OC)[C@@](O)(CN(C)Cc3ccc(-c4cn(CCCC(=O)NO)nn4)cc3)[C@@H](C)O2)[C@@H](C)[C@@H](O[C@H]2O[C@@H](C)C[C@@H](N(C)C)[C@@H]2O)[C@](C)(OC)C[C@@H](C)C(=O)[C@H](C)[C@H](O)[C@]1(C)O , system UniProtKB Q9UBN7?
a: 361

q: Please tell me: IC50 of CC[C@H]1OC(=O)[C@@H](C)[C@H](O[C@H]2C[C@@](C)(OC)[C@](O)(CN(C)C)[C@H](C)O2)[C@H](C)[C@H](O[C@H]2O[C@@H](C)C[C@@H](N(C)Cc3ccc(-c4cn(CCCCCCC(=O)NO)nn4)cc3)[C@@H]2O)[C@@](C)(O)C[C@H](C)CN(C)[C@@H](C)[C@H](O)[C@@]1(C)O , system UniProtKB Q9UBN7?
a: 18.9

q: Please tell me: IC50 of CC[C@H]1OC(=O)[C@H](C)C(=O)[C@H](C)[C@@H](O[C@@H]2O[C@H](C)C[C@H](N(C)Cc3ccccc3-c3cn(CCCCCC(=O)NO)nn3)[C@H]2O)[C@@](C)(OC)C[C@@H](C)C2=NCCN3C(=O)O[C@@]1(C)[C@H]3[C@H]2C , system UniProtKB Q9UBN7?
a: 248

q: Please tell me: IC50 of CC[C@H]1OC(=O)[C@@H](C)[C@H](O[C@H]2C[C@@](C)(OC)[C@](O)(CN(C)Cc3ccc(-c4cn(CCCCC(=O)NO)nn4)cc3)[C@H](C)O2)[C@H](C)[C@H](O[C@H]2O[C@@H](C)C[C@@H](N(C)C)[C@@H]2O)[C@@](C)(O)C[C@H](C)CN(C)[C@@H](C)[C@H](O)[C@@]1(C)O , system UniProtKB Q9UBN7?
a: 95.3

q: Please tell me: IC50 of CC[C@H]1OC(=O)[C@@H](C)[C@H](O[C@H]2C[C@@](C)(OC)[C@@H](O)[C@H](C)O2)[C@H](C)[C@H](O[C@H]2O[C@@H](C)C[C@@H](N(C)Cc3ccc(-c4cn(CCCCCCC(=O)NO)nn4)cc3)[C@@H]2O)[C@@](C)(O)C[C@H](C)CN(C)[C@@H](C)[C@H](O)[C@@]1(C)O (stereo in doubt) , system UniProtKB Q9UBN7?
a: 7.29

q: Please tell me: IC50 of CC[C@H]1OC(=O)[C@H](C)C(=O)[C@H](C)[C@@H](O[C@@H]2O[C@H](C)C[C@H](N(C)Cc3ccc(-c4cn(CCCCCCC(=O)NO)nn4)cc3)[C@H]2O)[C@@](C)(OC)C[C@@H](C)C2=NCCN3C(=O)O[C@@]1(C)[C@H]3[C@H]2C , system UniProtKB Q9UBN7?
a: 6.99

q: Please tell me: IC50 of CC[C@H]1OC(=O)[C@H](C)C(=O)[C@H](C)[C@@H](O[C@@H]2O[C@H](C)C[C@H](N(C)Cc3ccc(-c4cn(CCCCCC(=O)NO)nn4)cc3)[C@H]2O)[C@@](C)(OC)C[C@@H](C)C2=NCCN3C(=O)O[C@@]1(C)[C@H]3[C@H]2C , system UniProtKB Q9UBN7?
a: 8.9

q: Please tell me: IC50 of CC[C@@H]1OC(=O)[C@H](C)[C@@H](O[C@@H]2C[C@](C)(OC)[C@H](O)[C@@H](C)O2)[C@@H](C)[C@@H](O[C@@H]2O[C@H](C)C[C@H](N(C)Cc3cccc(-c4cn(CCCCCC(=O)NO)nn4)c3)[C@H]2O)[C@](C)(O)C[C@@H](C)CN(C)[C@H](C)[C@@H](O)[C@]1(C)O , system UniProtKB Q9UBN7?
a: 43.8

q: Please tell me: IC50 of CC[C@@H]1OC(=O)[C@@H](C)[C@H](O[C@H]2C[C@@](C)(OC)[C@@H](O)[C@H](C)O2)[C@@H](C)[C@H](O[C@H]2O[C@@H](C)C[C@@H](N(C)C)[C@@H]2O)[C@](C)(O)C[C@H](C)CN(Cc2ccc(-c3cn(CCCCCCC(=O)NO)nn3)cc2)[C@H](C)[C@H](O)[C@@]1(C)O , system UniProtKB Q9UBN7?
a: 4.72

The origin of these recorded values is ChEMBL document CHEMBL3734738.
